# system.tested: T1, recombinant alipidated human ApoE2 (human, UniProt P02649 19-317)
# T1 construct: mature; full length recombinant protein made in E. coli or bought
# test.details: direct ELISA on coated recombinant alipidated ApoE (0.5 ug/ml)
# Method: ELISA dose response curves were generated for several anti-ApoE antibodies. Briefly, plates were coated overnight with full length recombinant alipidated ApoE2, ApoE3, or ApoE4 (0.5 μg/ml). The following days, plates were washed, blocked and then incubated with an anti-ApoE antibody. A goat, anti-mouse IgG-HRP antibody was used for secondary detection. Recombinant alipidated ApoE was either expressed solubly in E. coli and then purified, or purchased from a commercial supplier.
metric: EC50 (nM)
Quick note: give the figure in nM, leave out the unit.

{"columns": ["binder", "EC50 [nM]"],
 "data": [
  ["HJ1526 (antibody, V domains shown, murine monoclonal antibody from hybridoma) VH: QVQLQQPGTALVKPGASVKLSCKSSGYTFTDYWVHWVKQRPGQGLEWIGNINPRNGGINYNENFKGKAILTVDRSFSIAYMQLNSLTSEDSAVYYCARPGATVVHRTPWFAHWGQGTLVTVSA VL: EIVLTQSPALMAASPGEKVTITCSVSSSISSSNLHWFQQKSETSPKPWIFGTSYLASGVPVRFSGSGSGTSYSLTISSMEAEDAATYYCQQWNSYPLTFGAGTKLELR", 0.03]
]}

// next item, EC50 requested
Data point: HJ153 (antibody, V domains shown, murine monoclonal antibody from hybridoma; also called HJ153B (biotinylated)) VH: QVQLQQPGAELVKPGASVKLSCKASGYTFTSYWMHWVKQRPGRGLEWIGEIDPSDGFTYNNQNFKDKSTLTVDRSSGTAYLQLSSLTSEDSAVYYCAGSLGRIGLAYWGHGTLVTVSA VL: QIVLTQSPAIMSASPGEKVTISCSASSSVTYMYWYQQKPGASPKSWIYRTSNLASGVPARFSGSGSGTSYSLTISSMEAEDAATYYCQQFQSYPLTFGAGTKLELKR ; EC50 = 0.02
